// data source = paper PMC3412864

kcat/Km: recorded values
Substrate: [O]=[Cr](=[O])([OH])[OH]
Assay: purified protein
Settings: 100 µM NADH, 5 µM enzyme, 50 mM Tris-HCl, 100 mM NaCl, pH 7.4, 37°C, aerobic
# value in M⁻¹ s⁻¹; strip the unit string

Ask | Value lookup for kcat/Km; key = Gluconacetobacter hansenii chromate reductase (Gh-ChrR) (enzyme, Gluconacetobacter hansenii ATCC 23769, Gh-ChrR, NAD(P)H-dependent FMN reductase from Gluconacetobacter hansenii ATCC 23769 (ZP_06834583); 193 native residues; codon-optimised synthetic gene in pJexpress411; Monomer 21.3 kDa (193 native residues plus a six-residue C-terminal poly-histidine tag); In the crystal 5-6 N-terminal and 7-9 C-terminal residues are not seen; also called putative chromate reductase; source: E. coli BL21(DE3), …) MTTTSPLHFVTLLGSLRKASFNAAVARALPEIAPEGIAITPLGSIGTFPHYSQDVQEEGFPAPVLTMAQQIATADAVVIVTPEYNYSVPGVLKNAIDWLSRVSPQPLAGKPVALVTASPGMIGGARAQYHLRQSLVFLDAYVLNRPEAMIGQVTGKVDAQTLELSDVATREFLARQLDALAALARTLSPRAIT
Reply | 1000

Ask | Value lookup for kcat/Km; key = Gh-ChrR (Novacetimonas hansenii ATCC 23769; S118A) (protein) MTTTSPLHFVTLLGSLRKASFNAAVARALPEIAPEGIAITPLGSIGTFPHYSQDVQEEGFPAPVLTMAQQIATADAVVIVTPEYNYSVPGVLKNAIDWLSRVSPQPLAGKPVALVTAAPGMIGGARAQYHLRQSLVFLDAYVLNRPEAMIGQVTGKVDAQTLELSDVATREFLARQLDALAALARTLSPRAIT
Reply | 500

Ask | Value lookup for kcat/Km; key = Gh-ChrR (Novacetimonas hansenii ATCC 23769; R101A) (protein) MTTTSPLHFVTLLGSLRKASFNAAVARALPEIAPEGIAITPLGSIGTFPHYSQDVQEEGFPAPVLTMAQQIATADAVVIVTPEYNYSVPGVLKNAIDWLSAVSPQPLAGKPVALVTASPGMIGGARAQYHLRQSLVFLDAYVLNRPEAMIGQVTGKVDAQTLELSDVATREFLARQLDALAALARTLSPRAIT
Reply | 40

// next entry
Ask | Value lookup for kcat/Km; key = Gh-ChrR (Novacetimonas hansenii ATCC 23769; N85A) (protein) MTTTSPLHFVTLLGSLRKASFNAAVARALPEIAPEGIAITPLGSIGTFPHYSQDVQEEGFPAPVLTMAQQIATADAVVIVTPEYAYSVPGVLKNAIDWLSRVSPQPLAGKPVALVTASPGMIGGARAQYHLRQSLVFLDAYVLNRPEAMIGQVTGKVDAQTLELSDVATREFLARQLDALAALARTLSPRAIT
Reply | 90
